Assay: antimalarial activity against Dd2 strain (AID 2302);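 note: 0% = DMSO untreated growth and 100% = chloroquine plus artemisinin killed control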
Conditions: P. falciparum Dd2 in RBCs, LDH growth readout, 72 h; at 2 µM; stronger effect = higher value
REPORTED_PROPERTY: growth inhibition (%)
Give bare numbers, in %.

{"MOLECULE": "COC(=O)c1cccc(NC(=O)NC2CCN(c3ccnc(Nc4cc(OC)c(OC)c(OC)c4)n3)C2)c1 (centres undefined)", "REPORTED_PROPERTY": "growth inhibition", "NUMERIC_VALUE": 68}
{"MOLECULE": "COc1ccc2nccc([C@@H](O)CN3CCC(NC(=O)/C=C/c4cccc(NC(C)=O)c4)CC3)c2c1", "REPORTED_PROPERTY": "growth inhibition", "NUMERIC_VALUE": 60}
{"MOLECULE": "CCN1CCC(N(Cc2ccc(-c3ccc(C(F)(F)F)s3)cc2)C(=O)Cn2c(CCc3cccc(F)c3F)nc(=O)c3ccccc32)CC1", "REPORTED_PROPERTY": "growth inhibition", "NUMERIC_VALUE": 95}

Let us examine a further case.
### Prompt Give the value of growth inhibition reported for the following: Cc1ccc(NS(=O)(=O)c2ccc(C(C)N3CCC(N4CCCCC4)CC3)cc2)cc1C (centres undefined)
### Response 82

###

Experiment: antimalarial activity against Dd2 strain (AID 2302);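 note: 0% = DMSO untreated growth and 100% = chloroquine plus artemisinin killed control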
Settings: P. falciparum Dd2 in RBCs, LDH growth readout, 72 h; at 2 µM; stronger effect = higher value
Please note: t applies when growth inhibition is 50% or greater, and f applies otherwise.

{"COMPOUND": "C=CCc1cccc(C)c1OCCCON1C(N)=NC(N)=NC1(C)C", "LABEL": "t"}

### Prompt Is growth inhibition at least 50%? Consider C=CCOc1ccc(CNC2CCN(Cc3ccccc3)CC2)cc1Br
### Response f

### Prompt // inclusive: growth inhibition at least 50%? input: CC1(C)N=C(N)NC(NOCc2ccc(Cl)c(Cl)c2)=N1
### Response f

### Prompt State whether the measured growth inhibition reaches 50%, counting equality as reaching it, for CCCCNC(=O)[C@H](CC1CCCCC1)NC(=O)c1ccc(O)c(-c2ccc(Cl)c(Cl)c2)c1
### Response t

### Prompt hey, is growth inhibition for this one >= 50%? Clc1ccc(C=NNc2ccnc3ccccc23)cc1
### Response t

### Prompt In plain terms: is recorded growth inhibition at least 50% for Cc1cnc(-c2cccc(C(=O)NC3CCC(CCN4CCc5ccc(C#N)cc5CC4)CC3)c2)[nH]1 (stereo not given) ?
### Response t

### Prompt // inclusive: growth inhibition at least 50%? input: CN(C)CCN(C)Cc1ccc(-c2cccc(NC(=O)c3cccc(C#N)c3)c2)cc1
### Response f

### Prompt In plain terms: is recorded growth inhibition at least 50% for CCC[C@@H]([C@@H](CC(C)C)C(=O)N[C@@H](CCCCNC(=O)c1ccccn1)C(=O)Nc1nccs1)N(O)C=O ?
### Response t

### Prompt Tell me whether growth inhibition is at least 50% here: CC(=O)Nc1nc(-c2ccccc2)[nH]c1C(N)=O
### Response f

### Prompt Hello, I need to know if CN(Cc1ccc(-c2ccc(C(F)(F)F)cc2)cc1)C(=O)Cn1c(CCc2cccc(F)c2F)nc(=O)c2ccc(N3CCN(CCN4CCCCC4)CC3)nc21 has measured growth inhibition not below 50%. Thanks!
### Response t

### Prompt Can Clc1ccccc1CCNCC1CCN(CC2CCCCC2)CC1 be said to have growth inhibition at or above 50%?
### Response f

### Prompt State whether the measured growth inhibition reaches 50%, counting equality as reaching it, for CCOC(=O)c1ccc(NC(=O)N[C@H]2CCN(CCCCCNC(=O)/C=C/c3ccc(Cl)c(Cl)c3)C2)cc1
### Response f

### Prompt Does growth inhibition meet or surpass 50% for CCC(ON1C(N)=NC(N)=NC1(C)C)c1ccc(Cl)cc1 (stereo not given) ?
### Response t
